Tested on: HCT-116 cell line
Assay: Inhibition of cell growth, MTT tetrazolium salt assay
Type: cell-based
Details: HCT-116 cells, 0.25 μM compound
Reported Metric: HCT-116 % Inhibition at 0.25 μM (%)
Output spec: scalar in %, unitless text.

Problem: Please list HCT-116 % Inhibition at 0.25 μM recorded for the molecule Nc1nc(Nc2ccc(C(=O)NC3CCOC3=O)cc2)sc1C(=O)c1c(F)cccc1F (stereo not shown) [Example G199]
Solution: 52

Problem: Please list HCT-116 % Inhibition at 0.25 μM recorded for the molecule Cc1cccc(N2CCN(C(=O)c3ccc(Nc4nc(N)c(C(=O)c5c(F)cccc5F)s4)cc3)CC2C)c1 (stereo not shown) [Example G308]
Solution: 60

Problem: Please list HCT-116 % Inhibition at 0.25 μM recorded for the molecule Nc1nc(Nc2ccc(C(=O)NC[C@@H]3CCCC[C@H]3O)cc2)sc1C(=O)c1c(F)cccc1F (relative stereo) [Example G350]
Solution: 41

Problem: Please list HCT-116 % Inhibition at 0.25 μM recorded for the molecule Nc1nc(Nc2ccc(C(=O)N3CCN(c4ccccn4)CC3)cc2)sc1C(=O)c1c(F)cccc1F [Example C201]
Solution: 43

Problem: Please list HCT-116 % Inhibition at 0.25 μM recorded for the molecule COc1cccc(CNC(=O)c2ccc(Nc3nc(N)c(C(=O)c4c(F)cccc4F)s3)cc2)c1OC [Example G332]
Solution: 66

Problem: Please list HCT-116 % Inhibition at 0.25 μM recorded for the molecule CCCN(C(=O)c1ccc(Nc2nc(N)c(C(=O)c3c(F)cccc3F)s2)cc1)C(C)CC (stereo not shown) [Example G356]
Solution: 50

Problem: Please list HCT-116 % Inhibition at 0.25 μM recorded for the molecule Nc1nc(Nc2ccc(C(=O)NCc3cc(F)ccc3F)cc2)sc1C(=O)c1c(F)cccc1F [Example G309]
Solution: 65

Problem: Please list HCT-116 % Inhibition at 0.25 μM recorded for the molecule Nc1nc(Nc2ccc(C(=O)NCCC3=CCCCC3)cc2)sc1C(=O)c1c(F)cccc1F [Example G337]
Solution: 52

Problem: Please list HCT-116 % Inhibition at 0.25 μM recorded for the molecule CCCN(CCC)C(=O)c1ccc(Nc2nc(N)c(C(=O)c3c(F)cccc3F)s2)cc1 [Example G248]
Solution: 55

Problem: Please list HCT-116 % Inhibition at 0.25 μM recorded for the molecule Nc1nc(Nc2ccc(C(=O)NCc3cccc(Cl)c3)cc2)sc1C(=O)c1c(F)cccc1F [Example G324]
Solution: 60

Problem: Please list HCT-116 % Inhibition at 0.25 μM recorded for the molecule COCCN1CCN(C(=O)c2ccc(Nc3nc(N)c(C(=O)c4c(F)cccc4F)s3)cc2)CC1 [Example G362]
Solution: 57

Problem: Please list HCT-116 % Inhibition at 0.25 μM recorded for the molecule Nc1nc(Nc2ccc(C(=O)NC(CO)CSCc3ccccc3)cc2)sc1C(=O)c1c(F)cccc1F (stereo not shown) [Example G383]
Solution: 51

Problem: Please list HCT-116 % Inhibition at 0.25 μM recorded for the molecule CN(Cc1ccco1)C(=O)c1ccc(Nc2nc(N)c(C(=O)c3c(F)cccc3F)s2)cc1 [Example G307]
Solution: 54

Problem: Please list HCT-116 % Inhibition at 0.25 μM recorded for the molecule CCN(CC)C(=O)C1CCCN(C(=O)c2ccc(Nc3nc(N)c(C(=O)c4c(F)cccc4F)s3)cc2)C1 (stereo not shown) [Example G224]
Solution: 53

Problem: Please list HCT-116 % Inhibition at 0.25 μM recorded for the molecule CC1CC(C)CN(C(=O)c2ccc(Nc3nc(N)c(C(=O)c4c(F)cccc4F)s3)cc2)C1 (stereo not shown) [Example G273]
Solution: 45

Problem: Please list HCT-116 % Inhibition at 0.25 μM recorded for the molecule CC(C)(C)C1CCC(NC(=O)c2ccc(Nc3nc(N)c(C(=O)c4c(F)cccc4F)s3)cc2)CC1 (stereo not shown) [Example G267]
Solution: 44

Problem: Please list HCT-116 % Inhibition at 0.25 μM recorded for the molecule CSc1ccc(NC(=O)c2ccc(Nc3nc(N)c(C(=O)c4c(F)cccc4F)s3)cc2)cc1 [Example G255]
Solution: 63

Problem: Please list HCT-116 % Inhibition at 0.25 μM recorded for the molecule Nc1nc(Nc2ccc(C(=O)NCc3ccc(Cl)c(Cl)c3)cc2)sc1C(=O)c1c(F)cccc1F [Example G336]
Solution: 51

Problem: Please list HCT-116 % Inhibition at 0.25 μM recorded for the molecule Nc1nc(Nc2ccc(C(=O)N(CCO)Cc3ccccc3)cc2)sc1C(=O)c1c(F)cccc1F [Example G379]
Solution: 54

Problem: Please list HCT-116 % Inhibition at 0.25 μM recorded for the molecule CCCc1ccc(NC(=O)c2ccc(Nc3nc(N)c(C(=O)c4c(F)cccc4F)s3)cc2)cc1 [Example G204]
Solution: 49

Problem: Please list HCT-116 % Inhibition at 0.25 μM recorded for the molecule CN(Cc1ccccc1Cl)C(=O)c1ccc(Nc2nc(N)c(C(=O)c3c(F)cccc3F)s2)cc1 [Example G259]
Solution: 46

Problem: Please list HCT-116 % Inhibition at 0.25 μM recorded for the molecule CCCCN(CCCC)C(=O)c1ccc(Nc2nc(N)c(C(=O)c3c(F)cccc3F)s2)cc1 [Example G314]
Solution: 47

Problem: Please list HCT-116 % Inhibition at 0.25 μM recorded for the molecule N#CCc1ccc(NC(=O)c2ccc(Nc3nc(N)c(C(=O)c4c(F)cccc4F)s3)cc2)cc1 [Example G321]
Solution: 51

Problem: Please list HCT-116 % Inhibition at 0.25 μM recorded for the molecule Cc1ccc(O)c(NC(=O)c2ccc(Nc3nc(N)c(C(=O)c4c(F)cccc4F)s3)cc2)c1 [Example G396]
Solution: 67

Problem: Please list HCT-116 % Inhibition at 0.25 μM recorded for the molecule CCN(CC)C(=O)c1ccc(Nc2nc(N)c(C(=O)c3c(F)cccc3F)s2)cc1 [Example C232]
Solution: 53

Problem: Please list HCT-116 % Inhibition at 0.25 μM recorded for the molecule Nc1nc(Nc2ccc(C(=O)Nc3cccc(-c4nnco4)c3)cc2)sc1C(=O)c1c(F)cccc1F [Example G369]
Solution: 36

Problem: Please list HCT-116 % Inhibition at 0.25 μM recorded for the molecule Nc1nc(Nc2ccc(C(=O)Nc3ccc(Cl)nc3)cc2)sc1C(=O)c1c(F)cccc1F [Example G281]
Solution: 63

Problem: Please list HCT-116 % Inhibition at 0.25 μM recorded for the molecule CCCCN(CCCCO)C(=O)c1ccc(Nc2nc(N)c(C(=O)c3c(F)cccc3F)s2)cc1 [Example G340]
Solution: 40

Problem: Please list HCT-116 % Inhibition at 0.25 μM recorded for the molecule CC(=O)c1ccc(NC(=O)c2ccc(Nc3nc(N)c(C(=O)c4c(F)cccc4F)s3)cc2)cc1 [Example G310]
Solution: 53

Problem: Please list HCT-116 % Inhibition at 0.25 μM recorded for the molecule CCN(CC)CCN1CCN(C(=O)c2ccc(Nc3nc(N)c(C(=O)c4c(F)cccc4F)s3)cc2)CC1 [Example G374]
Solution: 41

Problem: Please list HCT-116 % Inhibition at 0.25 μM recorded for the molecule C=CCN(CC=C)C(=O)c1ccc(Nc2nc(N)c(C(=O)c3c(F)cccc3F)s2)cc1 [Example G272]
Solution: 47

These measurements were taken from patent US6720346B2.
